These entries and their values trace back to patent US10351522B2.

# test system: human OX2R (Homo sapiens, UniProt O43614)
# Construct: expressed in transfected cells; host or cells: CHO (Chinese hamster ovary) cells, line CHOOX2R, co-expressing NFAT-luciferase
# Sequence (O43614 whole entry): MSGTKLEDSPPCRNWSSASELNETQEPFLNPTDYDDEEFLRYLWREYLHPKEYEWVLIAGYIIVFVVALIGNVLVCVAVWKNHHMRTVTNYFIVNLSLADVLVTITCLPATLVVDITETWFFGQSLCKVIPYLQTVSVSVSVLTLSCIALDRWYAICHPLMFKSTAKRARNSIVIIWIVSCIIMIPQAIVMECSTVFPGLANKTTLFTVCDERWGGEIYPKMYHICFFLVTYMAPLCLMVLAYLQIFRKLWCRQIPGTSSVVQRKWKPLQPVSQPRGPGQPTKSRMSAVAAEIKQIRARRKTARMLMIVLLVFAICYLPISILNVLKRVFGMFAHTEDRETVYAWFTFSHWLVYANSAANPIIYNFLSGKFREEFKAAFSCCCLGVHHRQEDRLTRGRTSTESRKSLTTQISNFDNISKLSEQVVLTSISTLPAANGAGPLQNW
# test name: Agonist activity against OX2R: intracellular calcium (Fura-2AM, FDSS7000) in CHOOX2R cells
# Assay type: cell-based
# experimental setup: 1.0 μM test compound; relative to orexin-A as full agonist (100%)
property label: Response (%) OX2R
Please respond with the number in % and leave the unit unwritten.

structure string: COc1ccc(-c2cccc(C(=O)N(C)C)c2)cc1S(=O)(=O)Nc1cccc(NCc2ccccc2)c1
test system: human OX2R (Homo sapiens, UniProt O43614)
Response (%) OX2R: 51

In plain terms, COc1ccc(-c2cccc(C(=O)N(C)C)c2)cc1S(=O)(=O)Nc1cccc(NC(=O)Nc2cc(OC)c(OC)c(OC)c2)c1 has a documented Response (%) OX2R of 71

----------
# test system: human OX2R (Homo sapiens)
# Construct: expressed in transfected cells; host or cells: CHO (Chinese hamster ovary) cells, line CHOOX2R, co-expressing NFAT-luciferase
# test name: Agonist activity against OX2R: intracellular calcium (Fura-2AM, FDSS7000) in CHOOX2R cells
# Type: cell-based
# experimental setup: 0.1 μM test compound; relative to orexin-A as full agonist (100%)
# Procedure: Evaluation of Agonist Activity Against OX1R and OX2R […] (As used herein, Response in Table 21 to Table 27 is a value obtained by dividing the agonist activity value, when the test compound is evaluated with orexin-A as a full-agonist (maximum value of agonist activity: 100%), at 10 μM, 1.0 μM, 0.1 μM by the agonist activity value of orexin-A.)
Parameter: Response (%) OX2R. Scope: all listed entries.
Answer format: numeric, % implied, no suffix.

Use the examples below as a reference point.
molecule: COc1ccc(Nc2cccc(NS(=O)(=O)c3cc(-c4cccc(C(=O)N(C)C)c4)ccc3OC)c2)cc1 [Example 29]
quantitative readout: 11
//
molecule: COc1ccc(NC(=O)Nc2cccc(NS(=O)(=O)c3cc(-c4cccc(C(=O)N(C)C)c4)ccc3OC)c2)cc1 [Example 53]
quantitative readout: 98

Attention now turns to another entry.
Note to self: Response (%) OX2R recorded for COC(=O)c1cccc(NC(=O)Nc2cccc(NS(=O)(=O)c3cc(-c4cccc(C(=O)N(C)C)c4)ccc3OC)c2)c1 [Example 45] was 82

----------
# test system: human OX2R (Homo sapiens, UniProt O43614)
# Construct: expressed in transfected cells; host or cells: CHO (Chinese hamster ovary) cells, line CHOOX2R, co-expressing NFAT-luciferase
# test name: Agonist activity against OX2R: intracellular calcium (Fura-2AM, FDSS7000) in CHOOX2R cells
# Assay type: cell-based
# experimental setup: 10 μM test compound; relative to orexin-A as full agonist (100%)
Response (%) OX2R: recorded values
Just the number please, in %, no unit attached.

structure string: COc1ccc(-c2cccc(C(=O)N(C)C)c2)cc1S(=O)(=O)Nc1cccc(NC(=O)c2cccc(C)c2)c1
Response (%) OX2R: 114
--
structure string: COc1ccc(-c2cccc(C(=O)N(C)C)c2)cc1S(=O)(=O)Nc1cccc(NCc2ccccc2Br)c1
Response (%) OX2R: 81
--
structure string: COc1ccc(-c2cccc(C(=O)N(C)C)c2)cc1S(=O)(=O)Nc1cccc(NC(=N)Nc2cccc(C)c2)c1
Response (%) OX2R: 86

Value of measured Response (%) OX2R for the entry COc1ccccc1Nc1cccc(NS(=O)(=O)c2cc(-c3cccc(C(=O)N(C)C)c3)ccc2OC)c1 : 72

// recorded Response (%) OX2R for COc1ccc(-c2cccc(C(=O)N(C)C)c2)cc1S(=O)(=O)Nc1cccc(NC(=O)OCc2ccccc2)c1 : 11

Reported Response (%) OX2R for COc1ccc(-c2cccc(C(=O)N(C)C)c2)cc1S(=O)(=O)Nc1cccc(NC(=O)Nc2cccc(C)c2)c1 was 71

Entry COc1ccc(-c2cccc(C(=O)N(C)C)c2)cc1S(=O)(=O)Nc1cccc(Nc2ccc(C(=O)N(C)C)cc2)c1 , Response (%) OX2R reported as 95
